Provenance of the data: paper PMC10397247

Biological target: T1, 4H485-AA
T1 chain: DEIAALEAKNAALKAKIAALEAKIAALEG
Assay: two-hybrid library CCmax;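 also: natural log of median RNA to DNA barcode read ratio; higher means stronger binding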
Conditions: mean of both orientations
measured-endpoint: interaction score

1. DEIAALEAENAALEAKIAALKAENAALEG [4H171-AA]
-0.423
2. DKIAALKAKNAALKAEIAALEAKNAALKG [4H3016-AA]
-0.786
3. DKNAALEAEIAALEAKNAALKAEIAALKG [4H3130-AA]
-1.58
4. DENAALKAEIAALEAKNAALKAKIAALEG [4H1597-AA]
-1.53
5. DKNAALEAKIAALEAKNAALEAKIAALEG [4H3381-AA]
-0.941
6. DKNAALKAKIAALEAENAALKAEIAALEG [4H3865-AA]
-1.27
7. DEIAALEAKIAALEAKNAALEAKIAALKG [4H310-AA]
-0.778
